All figures here come from patent US20250171542A1.

experimental system: human PD-L1 expressed on cell surface (human, UniProt Q9NZQ7 19-290)
Sequence (Q9NZQ7 19-290 limits assumed): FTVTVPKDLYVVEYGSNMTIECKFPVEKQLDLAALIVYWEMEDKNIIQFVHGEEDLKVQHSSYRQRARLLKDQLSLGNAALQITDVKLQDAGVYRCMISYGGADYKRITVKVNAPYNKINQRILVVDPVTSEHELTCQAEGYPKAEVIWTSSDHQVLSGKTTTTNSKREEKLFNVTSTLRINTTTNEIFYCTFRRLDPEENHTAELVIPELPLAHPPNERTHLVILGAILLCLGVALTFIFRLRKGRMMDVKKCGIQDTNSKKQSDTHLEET
procedure text: cell-based or functional assay
Please go through the items and note down their IC50 (nM), Promega PD-1/PD-L1 blockade reporter assay.
Give bare numbers, in nM.

Reference set (2 entries):
binder	measurement unit	measurement
27A2 (antibody, human IgG1, V domains shown) VH: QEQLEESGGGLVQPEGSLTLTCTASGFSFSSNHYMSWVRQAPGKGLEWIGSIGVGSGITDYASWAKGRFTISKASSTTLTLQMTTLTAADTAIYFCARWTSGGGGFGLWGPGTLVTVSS VL: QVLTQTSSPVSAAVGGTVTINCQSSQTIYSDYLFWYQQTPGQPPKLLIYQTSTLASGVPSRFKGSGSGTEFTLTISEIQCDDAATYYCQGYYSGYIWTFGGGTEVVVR	nM	0.23
62E6 (antibody, human IgG1, V domains shown) VH: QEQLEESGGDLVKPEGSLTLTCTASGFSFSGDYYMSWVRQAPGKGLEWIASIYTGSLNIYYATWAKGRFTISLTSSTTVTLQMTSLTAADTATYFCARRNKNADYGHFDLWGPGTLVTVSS VL: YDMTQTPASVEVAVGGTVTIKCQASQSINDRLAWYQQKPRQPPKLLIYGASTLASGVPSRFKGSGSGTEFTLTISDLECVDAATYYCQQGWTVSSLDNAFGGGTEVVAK	nM	0.41

// next item, IC50 (nM), Promega PD-1/PD-L1 blockade reporter assay requested
input: Provide IC50 (nM), Promega PD-1/PD-L1 blockade reporter assay value for the following binder: 55H3/76D6 (antibody, human IgG1, V domains shown) VH: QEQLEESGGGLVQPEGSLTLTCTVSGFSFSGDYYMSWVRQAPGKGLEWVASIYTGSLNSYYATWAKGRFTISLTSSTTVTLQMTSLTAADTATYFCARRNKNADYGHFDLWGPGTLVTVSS VL: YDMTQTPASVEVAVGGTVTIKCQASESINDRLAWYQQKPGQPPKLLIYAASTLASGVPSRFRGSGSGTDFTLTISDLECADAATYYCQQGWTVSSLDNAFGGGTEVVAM
output: 0.97
